- testedTarget: 5-HT2BR WT (Homo sapiens, UniProt P41595)
- Sequence (P41595 whole entry): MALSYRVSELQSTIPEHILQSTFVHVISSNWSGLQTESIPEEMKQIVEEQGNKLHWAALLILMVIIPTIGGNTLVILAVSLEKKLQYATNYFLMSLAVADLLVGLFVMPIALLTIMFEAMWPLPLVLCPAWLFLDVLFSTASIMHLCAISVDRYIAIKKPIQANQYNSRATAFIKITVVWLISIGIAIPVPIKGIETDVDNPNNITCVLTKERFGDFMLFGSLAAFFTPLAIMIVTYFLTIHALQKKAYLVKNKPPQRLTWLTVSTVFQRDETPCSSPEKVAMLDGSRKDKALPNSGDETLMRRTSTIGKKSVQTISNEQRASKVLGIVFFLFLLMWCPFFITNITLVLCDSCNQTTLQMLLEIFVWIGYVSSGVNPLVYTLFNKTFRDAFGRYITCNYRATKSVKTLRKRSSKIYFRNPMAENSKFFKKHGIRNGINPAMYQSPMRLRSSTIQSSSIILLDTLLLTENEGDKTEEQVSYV
- procedureSummary: β-Arrestin2 recruitment Tango assay
quantityKind: pEC50
Scale note: pEC50 = -log10(concentration in M).

Problem: Item CC[C@@H](CO)NC(=O)[C@@H]1C=C2c3cccc4[nH]cc(c34)C[C@H]2N(C)C1 [methylergonovine] has what recorded pEC50?
Solution: 8.92

###

- testedTarget: 5-HT2BR A225S^5.46 (Homo sapiens, UniProt P41595, A225S)
- procedureSummary: Gq-mediated calcium flux FLIPR assay
quantityKind: pEC50
Scale: negative log10 of molar concentration, which is what pEC50 denotes.

Problem: I am curious: what pEC50 value has been reported for CC[C@@H](CO)NC(=O)[C@@H]1C=C2c3cccc4[nH]cc(c34)C[C@H]2N(C)C1 [methylergonovine] ?
Solution: 7.82
